# composite z-score listing for each entry below
assay procedure: probe aCHRDL2 binding to arrayed compounds – biochemical, biotinylated probe, 635/667 nm fluorescence, primary screen (AID 1100)
particulars: small-molecule microarray, higher = more signal
attribute measured: composite z-score

1) Cc1ccc(F)cc1S(=O)(=O)N[C@@H]1CCN(Cc2ccc(Br)cc2)C1    -0.418
2) COc1ccc([Si](C)(C)[C@@H]2[C@@H](CCO)O[C@]3(C(=O)N(Cc4ccccc4)c4ccc(N5CCOC5=O)cc43)[C@H]2C)cc1    -0.0546
3) COc1cc(NN2C(C(O)c3ccc(N(C)C)cc3)C=CC3C(=O)N(c4ccccc4)C(=O)C32)cc(OC)c1OC (centres undefined)    1.13
4) CCCCC(CC)C(O)C1C=CC2C(=O)N(C)C(=O)C2N1Nc1ccccc1 (centres undefined)    0.0302
5) CO[C@H]1O[C@H](CO)[C@@H](OC(=O)CCc2ccccc2)[C@@H]2OC(=O)[C@@H](Cc3ccccc3)C/C=C/C[C@H](Cc3ccccc3)C(=O)O[C@@H]12    0.585
6) C=CCC(OC(C)=O)[C@@H]1[C@@H](N(Cc2cc3ccccc3o2)C(=O)Cc2ccc(F)cc2)c2cc(OCCCO)ccc2N1C(=O)Cc1ccc2ccccc2c1 (some centres undefined)    0.426
7) CC(=O)NCCCC[C@@H]1NC(=O)[C@@H]2C[C@H](C(=O)NCCCCCN)[C@H](c3ccc(O)cc3)N2C1=O    0.656
8) CCCC[C@@H](O)C1=C(COC)C[C@H]2C(=O)N(C)C(=O)[C@H]2[C@H]1CO    -0.532
9) CCC1=C2CN(Cc3ccccc3)[C@@H](C(=O)Cc3ccccc3)C2C=CCC1 (some centres undefined)    -0.141
10) CO[C@H]1O[C@H](CO)[C@@H](OC(=O)Nc2ccc(Br)cc2)[C@@H]2OC(=O)[C@@H](Cc3ccccc3)C/C=C/C[C@H](Cc3ccccc3)C(=O)O[C@@H]12    0.265
11) O=C1NC(=O)C2C1C=CC(C(O)c1ccco1)N2Nc1ccc(Cl)cc1Cl (centres undefined)    0.609
12) C=CCNC(=O)[C@@H]1[C@H]2C(=O)O[C@H](c3ccccc3)[C@H](c3ccccc3)N2[C@H](c2ccc(OCCO)cc2)[C@@]12C(=O)N(C(=O)OCCOC)c1ccc(C#Cc3ccc(OC)cc3)cc12    0.299
13) C=CCC(OC(C)=O)[C@@H]1[C@@H](N(Cc2cccc3ccccc23)C(=O)Cc2ccc(OC)cc2)c2cc(OCCCO)ccc2N1C(=O)c1ccc(-c2ccccc2)cc1 (some centres undefined)    0.44
14) CCOC(=O)C1=C[C@@H](C(C)C)N(S(=O)(=O)c2ccc(C)cc2)[C@H]1c1ccc(C(F)(F)F)cc1    0.703
